# testTarget: BRD2(1) (Homo sapiens, UniProt P25440)
# Construct: against the first and second bromodomains of BRD2, BRD3 and BRD4
# Sequence (P25440 74-180 limits assumed): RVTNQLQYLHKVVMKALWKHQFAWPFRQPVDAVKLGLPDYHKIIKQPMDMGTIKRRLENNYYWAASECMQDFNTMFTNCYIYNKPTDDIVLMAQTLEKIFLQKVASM
# protocolNotes: TR-FRET assay, BRD2(1)
pIC50: −log10 of the molar value.
measureName: pIC50

Please give measured pIC50 of the following entry: CC1=C(C#N)c2nc(N)c(C#N)c(C)c2/C1=C\c1ccc(-c2cc(C(=O)O)ccc2Cl)o1
< 4.30

====

# testTarget: BRD3(1) (Homo sapiens, UniProt Q15059)
# Construct: against the first and second bromodomains of BRD2, BRD3 and BRD4
# Sequence (Q15059 34-140 limits assumed): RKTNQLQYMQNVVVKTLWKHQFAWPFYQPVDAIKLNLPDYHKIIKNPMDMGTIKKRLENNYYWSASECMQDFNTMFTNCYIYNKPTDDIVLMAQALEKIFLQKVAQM
# protocolNotes: TR-FRET assay, BRD3(1)
measureName: IC50

Please give measured IC50 of the following entry: CC1=C(C#N)c2nc(N)c(C#N)c(C)c2/C1=C\c1ccc(-c2cc(C(=O)O)ccc2Cl)o1 [AM879]
> 50 µM
